- System: CAF#7 (primary prostate cancer-associated fibroblasts of myCAF-like type)
- ASSAY_PROCEDURE: drug sensitivity score (DSS2, normalised partial AUC of dose-response, 72 h CellTiter-Glo viability) (DSS (dimensionless)); higher = more sensitive (stronger growth inhibition / cytotoxicity); extreme values may be limits of the assay
Label TRUE when drug sensitivity score >= 4; otherwise FALSE.

>>> qualitative_label("C[C@@H]1COCCN1c1cc(C2([S@](C)(=N)=O)CC2)nc(-c2cc[nH]c3nccc2-3)n1 [Ceralasertib] (tested concentration range 2.5-25000 nM)")
"TRUE"
>>> qualitative_label("COc1cc(N2CCC(N3CCN(C)CC3)CC2)ccc1Nc1ncc(Cl)c(Nc2ccccc2P(C)(C)=O)n1 [Brigatinib] (tested concentration range 0.1-1000 nM)")
"FALSE"
>>> qualitative_label("Cc1cc2c(F)c(Oc3ncnn4cc(OC[C@@H](C)O)c(C)c34)ccc2[nH]1 [Brivanib] (tested concentration range 0.1-1000 nM)")
"FALSE"
>>> qualitative_label("C/C(=C\\c1csc(C)n1)[C@@H]1C[C@@H]2O[C@]2(C)CCC[C@H](C)[C@H](O)[C@@H](C)C(=O)C(C)(C)[C@@H](O)CC(=O)N1 [Ixabepilone] (tested concentration range 0.1-1000 nM)")
"FALSE"
>>> qualitative_label("Nc1nc2[nH]cnc2c(=S)[nH]1 [Thioguanine] (tested concentration range 1-10000 nM)")
"TRUE"

* * *

- System: CAF#7
- ASSAY_PROCEDURE: drug sensitivity score (DSS2, normalised partial AUC of dose-response, 72 h CellTiter-Glo viability) (DSS (dimensionless)); higher = more sensitive (stronger growth inhibition / cytotoxicity); extreme values may be limits of the assay
OBSERVED_PROPERTY: drug sensitivity score

>>> quantitative_result("COc1ccc(Cn2ccc3ccc(C(=O)NO)cc32)cc1 (tested concentration range 1-10000 nM)")
4
>>> quantitative_result("C=CC(=O)N1CCC(Oc2cc3c(Nc4ccc(Cl)c(Cl)c4F)ncnc3cc2OC)CC1 [Poziotinib] (tested concentration range 0.1-1000 nM)")
0
>>> quantitative_result("NS(=O)(=O)NCCNc1nonc1/C(=N/O)Nc1ccc(F)c(Br)c1 [Epacadostat] (tested concentration range 1-10000 nM)")
1.1
>>> quantitative_result("CCCC(CCC)C(=O)O [Valproic acid] (tested concentration range 100-1000000 nM)")
0
>>> quantitative_result("CC(C)[C@@H](CS(=O)(=O)C(C)C)N1C(=O)[C@@](C)(CC(=O)O)C[C@H](c2cccc(Cl)c2)[C@H]1c1ccc(Cl)cc1 [KRT-232] (tested concentration range 1-10000 nM)")
12.7
>>> quantitative_result("CC(=O)Nc1ccc(C(=O)Nc2ccccc2N)cc1 [Tacedinaline] (tested concentration range 0.1-1000 nM)")
0.6
>>> quantitative_result("O=C1CN2Cc3c(ccc(Cl)c3Cl)N=C2N1 [Anagrelide] (tested concentration range 1-10000 nM)")
8.8
>>> quantitative_result("CC(C)n1cnc2c(NCCc3ccc(O)cc3)nc(-c3csc4ccccc34)nc21 [StemRegenin 1] (tested concentration range 1-10000 nM)")
0
>>> quantitative_result("CC(=O)[C@]1(O)Cc2c(O)c3c(c(O)c2[C@@H](O[C@H]2C[C@H](N)[C@H](O)[C@H](C)O2)C1)C(=O)c1ccccc1C3=O [Idarubicin] (tested concentration range 0.1-1000 nM)")
9.3
>>> quantitative_result("Cc1ccc(-n2nc(C(C)(C)C)cc2NC(=O)Nc2ccc(OCCN3CCOCC3)c3ccccc23)cc1 [Doramapimod] (tested concentration range 1-10000 nM)")
1.4
>>> quantitative_result("C=C1C[C@@H]2CC[C@@]34C[C@H]5O[C@H]6[C@@H](O3)[C@H]3O[C@H](CC[C@@H]3O[C@H]6[C@H]5O4)CC(=O)C[C@@H]3[C@@H](OC)[C@@H](C[C@H](O)CN)O[C@H]3C[C@H]3O[C@@H](CC[C@@H]1O2)C[C@@H](C)C3=C [Eribulin] (tested concentration range 0.1-1000 nM)")
22.1
>>> quantitative_result("C[C@@H](Oc1ccc2[nH]nc(/C=C/c3cnn(CCO)c3)c2c1)c1c(Cl)cncc1Cl (tested concentration range 0.1-1000 nM)")
18.7
>>> quantitative_result("CCOC(=O)C1=CCCC[C@H]1S(=O)(=O)Nc1ccc(F)cc1Cl [Resatorvid] (tested concentration range 1-10000 nM)")
0.3
>>> quantitative_result("COc1cccc2c1c(O)c(C(=O)N(C)c1ccc(C(F)(F)F)cc1)c(=O)n2C [Tasquinimod] (tested concentration range 1-10000 nM)")
5.8
>>> quantitative_result("O=c1[nH]c(=O)n([C@H]2C[C@H](O)[C@@H](CO)O2)cc1C(F)(F)F [Trifluridine] (tested concentration range 1-10000 nM)")
0
>>> quantitative_result("COc1ccc(C[C@H](NC(=O)[C@H](C)NC(=O)CN2CCOCC2)C(=O)N[C@@H](Cc2ccccc2)C(=O)C2(C)CO2)cc1 (stereo in doubt) [ONX-0914] (tested concentration range 1-10000 nM)")
15.6
>>> quantitative_result("Cn1cncc1[C@@](N)(c1ccc(Cl)cc1)c1ccc2c(c1)c(-c1cccc(Cl)c1)cc(=O)n2C [Tipifarnib] (tested concentration range 1-10000 nM)")
1.4
>>> quantitative_result("COc1cc2/c(=N/c3ccc(Br)cc3F)nc[nH]c2cc1OCC1CCN(C)CC1 [Vandetanib] (tested concentration range 0.1-1000 nM)")
0.2
>>> quantitative_result("CNC(=O)[C@@H](NC(=O)[C@H](CC(C)C)[C@H](O)C(=O)NO)C(C)(C)C [Marimastat] (tested concentration range 1-10000 nM)")
0
>>> quantitative_result("CC(C)Oc1ccc(-c2nn([C@@H](C)c3oc4ccc(F)cc4c(=O)c3-c3cccc(F)c3)c3ncnc(N)c23)cc1F [Umbralisib] (tested concentration range 0.2-2500 nM)")
0
>>> quantitative_result("CNc1nc(-c2ccc3c(N)n[nH]c3c2)cc(N2C[C@@H](C(=O)NC3CCCCC3)CC[C@H]2C)n1 (tested concentration range 1-10000 nM)")
3.8
>>> quantitative_result("O=c1ncn2nc(Sc3ccc(F)cc3F)ccc2c1-c1c(Cl)cccc1Cl [Neflamapimod] (tested concentration range 1-10000 nM)")
0
